# Tested on: SF-539 CNS
# Assay Notes: NCI-60 one-dose screen, 48 h
# Settings: 10 µM unless noted
This is part of a sample that, as a whole, favours compounds with a hit. Of some 83,000 tested, about 20% had one in any assay. Calls of active or inactive are those of the source. The calls were made as follows: active = growth percent below 10; inactive = the rest.
Bench note: report the call from label 1 for active, label 0 for inactive

1) CCCCNc1nnc(-c2cc(-c3cc4ccccc4o3)nn2-c2ccccc2)o1 : label 0
2) C#CCC1(c2ccc(F)c(F)c2)NS(=O)(=O)c2ccccc21 (configuration not stated) : label 0
3) CC(=O)Nc1nc(C(=O)N2N=C(C)/C(=C/c3cccs3)C2=O)cs1 : label 0
4) NC(=O)c1ccc2c(c1)OCO2 : label 0
5) OCc1c(-c2ccccc2)nc2sccn12 : label 0

What was the test verdict on CCn1cc(C(=O)O)c(=O)c2cc(F)c(N3CCN(S(=O)(=O)c4cccc5ccccc45)CC3)cc21 ? label 0

What was the test verdict on O=C1Nc2cc(Cl)ccc2Oc2cc(Oc3ccccc3)ccc21 ? label 0

What was the test verdict on CCC(=O)Oc1ccc2c(c1)CC[C@@H]1[C@@H]2CC[C@]2(C)C[C@H](OC(=O)CC)C[C@@H]12 ? label 0

What was the test verdict on O=C(CN1CCN(c2cc3c(cc2F)c(=O)c(C(=O)O)cn3C2CC2)CC1)Nc1ccc(C(=O)/C=C/c2ccccc2)cc1 ? label 0

What was the test verdict on CNC(=O)c1cc(Oc2ccc3c(c2)sc2nc(-c4ccc(Cl)cc4)cn23)ccn1 ? label 0

---

# Test system: MCF7 breast
# Assay Notes: NCI-60 one-dose screen, 48 h (100 = growth as untreated, 0 = no growth, -100 = all killed)
# Settings: 10 µM unless noted
This is part of a sample that, as a whole, favours compounds with a hit. Of some 83,000 tested, about 20% had one in any assay. Active and inactive are the calls of the source. Rule for the calls: active = growth percent below 10; inactive = the rest.
Quick reference for growth among some compounds

Solved entries:
1. COc1ccc(/C(=N\O)c2cc(OC)c(OC)c(OC)c2)c(OC)c1N : 15.6% (inactive)
2. CCCCC[C@@H]1Cc2cc(O)c(C(=O)O)c3c2[C@H](C[C@@]2(CCCO2)O3)O1 : 102% (inactive)
3. CCN(CC)P(=O)(N(CC)CC)N(CCCSC/C=C(\C)CC/C=C(\C)CCC=C(C)C)CCCN1CCN(C)CC1 : 97.6% (inactive)

Given the entry COc1cc(Cn2c(-c3nonc3N)nc3ccccc32)ccc1C , report its measured growth. 20.7% (inactive)

Given the entry ClC1=C(Cl)C(Cl)=C(Cl)C1=Cc1ccc(Cl)cc1Cl , report its measured growth. 4.25% (active)

---

Quick reference for growth among some compounds
# Tested on: HS 578T breast
# Assay Notes: NCI-60 one-dose screen, 48 h (100 = growth as untreated, 0 = no growth, -100 = all killed)
# Settings: 10 µM unless noted
About 83,000 compounds went through this panel and 20% of them were active in at least one assay; those are over-represented in the sample as a whole.
Respond numerically; units are % and should not be typed.

Solved entries:
1. N#CC1=C(N)n2nc(-c3ccncc3)nc2NC1c1cccc2ccccc12 (centres undefined) : 80.5
2. O=c1[nH]c(-c2cn(-c3ccc(Cl)cc3)nn2)nc2ccccc12 : 37
3. COc1ccc(OC)c(-c2ccc(-c3ccccc3N)c3[nH]c4ccccc4c23)c1 : 94.3

Given the entry O=C(O)C(=Cc1c2ccccc2cc2ccccc12)C(=O)O , report its measured growth. 106

Given the entry C=C1C(=O)O[C@H]2[C@H]1CC/C(COC(=O)NCCc1ccc(Br)cc1)=C\CC[C@@]1(C)O[C@@H]21 , report its measured growth. 22.9

Given the entry COc1ccc(/C=C/C(=O)c2ccc(NC(=O)CN3CCN(c4cc5c(cc4F)c(=O)c(C(=O)O)cn5C4CC4)CC3)cc2)cc1 , report its measured growth. 94.8

Given the entry COc1ccc(/C=N/NC(=O)Cn2c(Cc3cccc4ccccc34)nc3ccccc32)cc1 , report its measured growth. 95.8

Given the entry COC1=CC(c2ccc[nH]2)=N/C1=C\c1[nH]c(C)c(C(=O)CCC(=O)Oc2ccc3c(c2)CCC2C3CC[C@]3(C)[C@@H](O)CC[C@@H]23)c1C (some centres undefined) , report its measured growth. 20.4

Given the entry COc1cccc2cc(-c3cc4ccccc4[nH]3)/c(=N/C(=S)Nc3ccccc3)oc12 , report its measured growth. 25.1

Source: PubChem BioAssay (NCI)
